Each recorded value in this set is attributed to patent US7476677B2.

- ASSAYED TARGET: Tie2 receptor tyrosine kinase (Homo sapiens, UniProt Q02763)
- Construct: consist of only the intracellular portion C-terminal portion of the respective receptor, within which is found the kinase domain
- Sequence (Q02763 770-1124 limits assumed): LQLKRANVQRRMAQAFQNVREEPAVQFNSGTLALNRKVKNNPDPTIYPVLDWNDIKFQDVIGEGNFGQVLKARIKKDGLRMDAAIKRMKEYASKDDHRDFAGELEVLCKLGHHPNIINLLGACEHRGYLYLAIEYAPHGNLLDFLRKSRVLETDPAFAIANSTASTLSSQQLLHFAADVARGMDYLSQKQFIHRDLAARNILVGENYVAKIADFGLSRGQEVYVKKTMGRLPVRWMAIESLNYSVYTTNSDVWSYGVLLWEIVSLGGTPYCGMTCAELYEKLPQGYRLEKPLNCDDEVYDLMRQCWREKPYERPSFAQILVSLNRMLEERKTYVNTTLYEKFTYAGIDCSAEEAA
- EXPERIMENT SUMMARY: In vitro receptor tyrosine kinase inhibition assay (Test (a), ELISA based)
- CONDITION INFO: recombinant human kinase domain lysate, synthetic peptide substrate, ATP 5 micromolar or Km
RECORDED METRIC: IC50 (µM)
State the answer as a number, implicitly in µM.

Please list IC50 recorded for the molecule Cn1cnc(-c2cccc(NC(=O)Nc3cccc(F)c3)c2)c1-c1cc2c(N)ncnc2s1 [Example 1]
16
